Each entry below lists one item and its recorded max response value.
- TARGET_OR_SYSTEM: human CMKLR1 (Homo sapiens, UniProt Q99788)
- Construct: host or cells: HEK293A (Invitrogen), stably expressing human Gα15
- Sequence (Q99788 whole entry): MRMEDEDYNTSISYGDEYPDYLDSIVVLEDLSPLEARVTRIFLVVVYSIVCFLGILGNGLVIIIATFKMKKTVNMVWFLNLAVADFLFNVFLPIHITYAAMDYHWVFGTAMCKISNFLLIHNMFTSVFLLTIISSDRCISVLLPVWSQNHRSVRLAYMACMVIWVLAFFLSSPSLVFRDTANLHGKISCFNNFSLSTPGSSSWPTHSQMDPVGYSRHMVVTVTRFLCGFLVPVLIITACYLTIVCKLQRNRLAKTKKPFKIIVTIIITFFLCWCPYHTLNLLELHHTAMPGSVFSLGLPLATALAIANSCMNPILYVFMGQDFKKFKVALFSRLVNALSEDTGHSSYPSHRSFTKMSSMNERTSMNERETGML
- RUN_DESCRIPTION: Ca2+ mobilization (CellLux imaging) agonist assay in HEK293A cells expressing CMKLR1 and Gα15
- Assay type: cell-based
- EXPERIMENTAL_CONTEXT: Ca2+ mobilization, CMKLR1; decimal comma
- Experimental: HEK293A cells (Invitrogen) expressing CMKLR1 and Gα15 were seeded at 5*10^4 cells/well in a poly-D-lysine coated 96-well black well/clear bottom plate (BD Falcon) and cultured overnight. From eighteen to twenty-four hours later, cells were loaded with FLUO4-AM (Invitrogen). […] Fluorescence data was generated in duplicate and experiments were repeated for at least three times. […] Signals were normalized to background fluorescence. […]
Square brackets hold non-standard residues; d marks the D form. Peptide text beside a SMILES is read from it.

{"MOLECULE": "CC[C@H](C)[C@H](NC(=O)CNC(=O)[C@@H]1CCCN1C(=O)[C@H](Cc1ccccc1)NC(=O)[C@@H](N)Cc1ccc(O)cc1)C(=O)N[C@@H](Cc1ccccc1)C(=O)N[C@@H](C)C(=O)N[C@H](Cc1ccccc1)C(=O)N[C@@H](CO)C(N)=O [compound 10] (H-YFPGIFA[dF]S-NH2; N-terminus assumed)", "max response": "1,48 DF/F0"}

Below: the item to evaluate.
Exercise: // lookup max response for CSCC[C@H](NC(=O)[C@H](N)Cc1ccc(O)cc1)C(=O)N1CCC[C@H]1C(=O)NCC(=O)N[C@@H](CCC(N)=O)C(=O)N[C@@H](Cc1ccc(O)cc1)C(=O)N[C@@H](C)C(=O)N[C@@H](Cc1ccccc1)C(=O)N[C@@H](CO)C(=O)O [compound 85] (H-[dY]MPGQYAFS-OH; N-terminus assumed)
Key: 1,78 DF/F0

----------
- RUN_DESCRIPTION: In vitro peptide stability in human serum (RP-HPLC)
- EXPERIMENTAL_CONTEXT: human, human serum, 25% (v/v) in RPMI
Square brackets hold non-standard residues; d marks the D form. Peptide text beside a SMILES is read from it.
Binary call on half-life at 50 µg/mL with cut-off 1 h: strictly below means Fulfilled, and equality or higher means Not fulfilled.

Record excerpt, results attached:
{"COMPOUND": "C[C@H](NC(=O)[C@H](Cc1ccc(O)cc1)NC(=O)[C@H](CCC(N)=O)NC(=O)[C@@H](CO)NC(=O)[C@H](Cc1ccccc1)NC(=O)[C@H](C)NC(=O)[C@@H](N)Cc1ccc(O)cc1)C(=O)N[C@@H](Cc1ccccc1)C(=O)N[C@H](CO)C(=O)O [compound 92] (H-YAF[dS]QYAF[dS]-OH; N-terminus assumed)", "GROUP": "Fulfilled"}
{"COMPOUND": "C[C@H](NC(=O)CN)C(=O)N[C@@H](Cc1ccccc1)C(=O)N[C@@H](CCC(N)=O)C(=O)N[C@@H](Cc1ccccc1)C(=O)N[C@H](CO)C(=O)N[C@@H](C)C(=O)N[C@@H](Cc1ccccc1)C(=O)N[C@H](CO)C(=O)O [compound 100] (H-GAFQF[dS]AF[dS]-OH; N-terminus assumed)", "GROUP": "Not fulfilled"}

Exercise: Dear colleague, could you confirm whether half-life at 50 µg/mL of C[C@H](NC(=O)[C@H](Cc1ccc(O)cc1)NC(=O)[C@H](CCC(N)=O)NC(=O)CNC(=O)[C@@H]1CCCN1C(=O)[C@@H](Cc1ccc(O)cc1)NC(=O)[C@@H](N)Cc1ccc(O)cc1)C(=O)N[C@@H](Cc1ccccc1)C(=O)N[C@H](CO)C(=O)O [compound 88] (H-Y[dY]PGQYAF[dS]-OH; N-terminus assumed) falls below 1 h? Thanks.
Key: Not fulfilled

Exercise: Input CC(C)[C@H](NC(=O)[C@@H](N)Cc1ccc(O)cc1)C(=O)N1CCC[C@H]1C(=O)NCC(=O)N[C@@H](CCC(N)=O)C(=O)N[C@@H](Cc1ccccc1)C(=O)N[C@@H](C)C(=O)N[C@@H](Cc1ccccc1)C(=O)N[C@H](CO)C(=O)O [compound 90] (H-YVPGQFAF[dS]-OH; N-terminus assumed) ; condition: half-life at 50 µg/mL strictly below 1 h. Does it hold?
Key: Fulfilled

Exercise: Decide: half-life at 50 µg/mL of CC(C)C[C@H](NC(=O)[C@@H](N)Cc1ccc(O)cc1)C(=O)N1CCC[C@H]1C(=O)NCC(=O)N[C@@H](CCC(N)=O)C(=O)N[C@@H](Cc1ccc(O)cc1)C(=O)N[C@@H](C)C(=O)N[C@@H](Cc1ccccc1)C(=O)N[C@H](CO)C(=O)O (H-YLPGQYAF[dS]-OH; N-terminus assumed) strictly below 1 h?
Key: Fulfilled

----------
In this section we review reported max response values for a set of substances.
- TARGET_OR_SYSTEM: human CMKLR1 (Homo sapiens, UniProt Q99788)
- Construct: host or cells: HEK293A (Invitrogen), stably expressing human Gα15
- RUN_DESCRIPTION: Ca2+ mobilization (CellLux imaging) agonist assay in HEK293A cells expressing CMKLR1 and Gα15
- Format: cell-based
- Experimental: HEK293A cells (Invitrogen) expressing CMKLR1 and Gα15 were seeded at 5*10^4 cells/well in a poly-D-lysine coated 96-well black well/clear bottom plate (BD Falcon) and cultured overnight. From eighteen to twenty-four hours later, cells were loaded with FLUO4-AM (Invitrogen). […] Fluorescence data was generated in duplicate and experiments were repeated for at least three times. […] Signals were normalized to background fluorescence. […]
Ends that are not written are not given here.

{"SUBSTANCE": "YFPGQFAFG-OH [compound 29]", "RESULT": "1,01 DF/F0"}
{"SUBSTANCE": "YFPGHFAFS-OH [compound 31]", "RESULT": "1,07 DF/F0"}
{"SUBSTANCE": "YFPGQFDFS-OH [compound 53]", "RESULT": "0,93 DF/F0"}

Exercise: What max response value was documented for this substance, YFPGNFAFS-OH [compound 32] ?
Key: 0,89 DF/F0

----------
- TARGET_OR_SYSTEM: human CMKLR1 (Homo sapiens, UniProt Q99788)
- Construct: host or cells: HEK293A (Invitrogen), stably expressing human Gα15
- RUN_DESCRIPTION: Ca2+ mobilization (CellLux imaging) agonist assay in HEK293A cells expressing CMKLR1 and Gα15
- Assay type: cell-based
- EXPERIMENTAL_CONTEXT: Ca2+ mobilization, CMKLR1; decimal comma; NR where no EC50 is given; read-out: EC50
- Method: HEK293A cells (Invitrogen) expressing CMKLR1 and Gα15 were seeded at 5*10^4 cells/well in a poly-D-lysine coated 96-well black well/clear bottom plate (BD Falcon) and cultured overnight. From eighteen to twenty-four hours later, cells were loaded with FLUO4-AM (Invitrogen). […] Fluorescence data was generated in duplicate and experiments were repeated for at least three times. […] Signals were normalized to background fluorescence. […]
Square brackets hold non-standard residues; d marks the D form. Peptide text beside a SMILES is read from it.
Listed here: items and their measured EC50.
Quick reminder: number only, in nM, skip the unit.

{"COMPOUND": "CC(C)C[C@H](NC(=O)[C@@H](N)Cc1ccc(O)cc1)C(=O)N1CCC[C@H]1C(=O)NCC(=O)N[C@@H](CCC(N)=O)C(=O)N[C@@H](Cc1ccc(O)cc1)C(=O)N[C@@H](C)C(=O)N[C@H](C)C(=O)N[C@H](Cc1ccccc1)C(=O)O [compound 141] (H-YLPGQYA[dA][dF]-OH; N-terminus assumed)", "TARGET_OR_SYSTEM": "human CMKLR1 (Homo sapiens, UniProt Q99788)", "QUANTITATIVE_RESULT": 108}
{"COMPOUND": "C[C@H](N)C(=O)N[C@@H](Cc1ccccc1)C(=O)N[C@H](CO)C(=O)N[C@@H](CCC(N)=O)C(=O)N[C@@H](Cc1ccccc1)C(=O)N[C@H](CO)C(=O)N[C@@H](C)C(=O)N[C@@H](Cc1ccccc1)C(=O)N[C@H](CO)C(=O)O [compound 106] (H-AF[dS]QF[dS]AF[dS]-OH; N-terminus assumed)", "TARGET_OR_SYSTEM": "human CMKLR1 (Homo sapiens, UniProt Q99788)", "QUANTITATIVE_RESULT": 697}

Exercise: Could you tell me which EC50 is on file for CC(C)C[C@H](NC(=O)[C@H](Cc1ccccc1)NC(=O)CNC(=O)[C@@H]1CCCN1C(=O)[C@H](CC(C)C)NC(=O)[C@@H](N)Cc1ccccc1)C(=O)N[C@@H](C)C(=O)N[C@@H](CC(C)C)C(=O)N1CCC[C@@H]1C(=O)O [compound 72] (H-FLPGFLAL[dP]-OH; N-terminus assumed) ?
Key: 2610

----------
This listing pairs substances with measured pEC50.
- TARGET_OR_SYSTEM: human CMKLR1 (Homo sapiens)
- Construct: host or cells: HEK293A (Invitrogen), stably expressing human Gα15
- RUN_DESCRIPTION: Ca2+ mobilization (CellLux imaging) agonist assay in HEK293A cells expressing CMKLR1 and Gα15
- Assay type: cell-based
- EXPERIMENTAL_CONTEXT: Ca2+ mobilization, CMKLR1; decimal comma; NR where no EC50 is given; read-out: EC50
Ends that are not written are not given here.
Lab note — pEC50 values are minus log10 of concentrations in M.

{"SUBSTANCE": "YLPGQYLFL-OH [compound 56]", "TARGET_OR_SYSTEM": "human CMKLR1 (Homo sapiens)", "pEC50": 6.94}
{"SUBSTANCE": "YLPGQFQFS-OH [compound 44]", "TARGET_OR_SYSTEM": "human CMKLR1 (Homo sapiens)", "pEC50": 8.02}
{"SUBSTANCE": "YPPGQYAFF-OH [compound 68]", "TARGET_OR_SYSTEM": "human CMKLR1 (Homo sapiens)", "pEC50": 5.83}

# context switch: different substance, same pEC50
Exercise: Would you mind telling me what pEC50 value was observed for YLPGQYAFY-OH [compound 48] ?
Key: 7.81
